Measured MTD by item
test: […] tolerated dose following single i.p. injection to B6D2F1/jico mice.; format: functional, Mus musculus

// known answers, use as guide
Nc1ccc2nc3c4c(nccc4c2c1Br)-c1ncccc1C3=O; >160 mg/kg
O=C1c2cccnc2-c2nccc3c2c1nc1ccc(Cl)cc13; >160 mg/kg
Nc1ccc2nc3c4c(nccc4c2c1)-c1ncccc1C3=O; >160 mg/kg
O=C1c2cccnc2-c2nccc3c2c1nc1cc(Br)ccc13; 40 mg/kg
O=C1c2cccnc2-c2nccc3c2c1nc1ccc(NCCCl)cc13; >160 mg/kg

Proceed to the following item.
Supply reported MTD belonging to this compound: `COc1ccnc2c1C(=O)c1nc3ccccc3c3ccnc-2c13`
>160 mg/kg
